src = the supplement of paper PMC6555819

Test system: PPARg DBDmut:RXRa IVT, anti-PPARg (DBD mutation: PPARg1 K132A/R137A, NR concentration 270 nM, RXRa partner concentration 90 nM)
TEST SUMMARY: PBM binding z-score (relative to random genomic background probes); higher = stronger binding; sequences stand for … in GC…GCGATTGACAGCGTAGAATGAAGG
Please use Fulfilled whenever PBM binding z-score is not below -0.3, and Not fulfilled whenever it is.

Reference set (5 entries):
>>> assigned_category("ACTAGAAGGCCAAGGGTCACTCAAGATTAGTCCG")
"Fulfilled"
>>> assigned_category("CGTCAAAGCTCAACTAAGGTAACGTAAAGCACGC")
"Not fulfilled"
>>> assigned_category("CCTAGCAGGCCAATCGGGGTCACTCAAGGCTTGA")
"Not fulfilled"
>>> assigned_category("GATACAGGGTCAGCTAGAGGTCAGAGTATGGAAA")
"Fulfilled"
>>> assigned_category("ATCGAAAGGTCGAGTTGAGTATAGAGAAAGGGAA")
"Fulfilled"

Determine whether measured PBM binding z-score meets or exceeds -0.3 for CCTCGGAGGACAACAGGATGTCAGAGCTGCCAGA
Not fulfilled

* * *

Tested on: PPARg:RXRa 30nM:10nM, anti-RXR (NR concentration 30 nM, RXRa partner concentration 10 nM)
TEST SUMMARY: PBM binding z-score (relative to random genomic background probes); higher = stronger binding; sequences stand for … in GC…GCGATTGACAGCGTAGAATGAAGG
Classification scheme (PBM binding z-score): low = under 1, intermediate = from 1 up to 4, high = 4 and over

Illustrative cases are given below, each with its answer.
>>> assigned_category("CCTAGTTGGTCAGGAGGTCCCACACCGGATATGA")
"low"
>>> assigned_category("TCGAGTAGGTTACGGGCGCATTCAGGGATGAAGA")
"intermediate"
>>> assigned_category("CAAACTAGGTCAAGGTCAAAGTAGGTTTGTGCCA")
"high"
>>> assigned_category("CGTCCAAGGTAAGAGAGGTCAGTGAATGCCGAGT")
"low"
>>> assigned_category("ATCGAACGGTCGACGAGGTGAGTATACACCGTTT")
"low"

Bin this entry: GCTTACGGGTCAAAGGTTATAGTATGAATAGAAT
high

Which category fits this record: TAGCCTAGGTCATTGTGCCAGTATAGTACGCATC
low

The entry to classify is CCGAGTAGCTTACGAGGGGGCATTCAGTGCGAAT ; which class holds it?
low

Given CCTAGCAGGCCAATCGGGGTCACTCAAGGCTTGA , name the class its PBM binding z-score places it in.
low

Category of CCTTACGGTTCACTGACAGGTTATAGCATTTGGA :
low

Textbook exercise: identify the category of the sequence given here, CAAACTAGGTCACAGAGGACAAAGTCCGTGCGTA , according to its measured value.
high

Into which bin does this sequence go? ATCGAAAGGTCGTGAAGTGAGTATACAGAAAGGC
intermediate

Looking at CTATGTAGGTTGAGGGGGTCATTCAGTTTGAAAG , which class would you pick?
intermediate

# bin lookup: classify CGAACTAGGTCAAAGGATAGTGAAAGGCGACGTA by its PBM binding z-score
high

Dear colleague, I would appreciate it if you could identify the bin for CGTCCAAGGTCAAAGGTCAGCGAAGAGATGACGG and reply at your convenience.
high

Which bin, given its PBM binding z-score, does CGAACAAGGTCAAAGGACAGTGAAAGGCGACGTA occupy?
high

Hi there! Could you help me figure out the category for CGAACTAGGTCACCAGGACAGTTAAGAGGTTGGA please?
high

Form field 'band' for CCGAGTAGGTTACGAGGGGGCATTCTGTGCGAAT
low

Which class is correct for the following sequence? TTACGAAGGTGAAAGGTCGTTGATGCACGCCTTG
high

Hi there! Could you help me figure out the category for AGTCAAAGTTCAGGACGAGGTAATGTAAAGCACG please?
intermediate
